# maps each entry to its pEC50
Assay target: T1, human LIV-1 (human, UniProt Q13433 29-755)
T1 construct: whole, on cells; also called H-LIV1
T1 sequence (looked up): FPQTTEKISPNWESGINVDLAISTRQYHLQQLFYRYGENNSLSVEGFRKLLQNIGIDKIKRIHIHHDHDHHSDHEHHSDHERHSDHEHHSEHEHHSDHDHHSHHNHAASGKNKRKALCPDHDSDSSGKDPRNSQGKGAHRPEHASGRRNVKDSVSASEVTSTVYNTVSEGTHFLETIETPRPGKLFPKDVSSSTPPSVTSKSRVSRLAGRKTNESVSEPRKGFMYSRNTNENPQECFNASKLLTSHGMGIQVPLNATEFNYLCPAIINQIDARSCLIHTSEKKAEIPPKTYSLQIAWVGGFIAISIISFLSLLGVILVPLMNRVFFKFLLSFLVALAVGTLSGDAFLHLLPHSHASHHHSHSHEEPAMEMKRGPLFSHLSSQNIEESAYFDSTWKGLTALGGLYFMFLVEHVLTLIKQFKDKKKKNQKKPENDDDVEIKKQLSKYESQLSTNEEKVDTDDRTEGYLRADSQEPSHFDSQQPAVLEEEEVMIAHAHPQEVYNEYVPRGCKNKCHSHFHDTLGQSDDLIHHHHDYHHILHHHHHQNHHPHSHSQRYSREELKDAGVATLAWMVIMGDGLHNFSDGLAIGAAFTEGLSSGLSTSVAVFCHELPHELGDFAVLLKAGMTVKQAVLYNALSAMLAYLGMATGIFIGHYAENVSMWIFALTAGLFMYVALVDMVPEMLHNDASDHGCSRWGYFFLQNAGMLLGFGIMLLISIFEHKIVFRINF
Assay summary: FACS, HEK293/H_LIV-1 cells
Convention used: pEC50 is expressed as -log10 of the molar concentration.

binder="135C6E7 (antibody, V domains shown, Tested as chimeric antibody) VH: EVQLVESGGGLVQPKGSLKLSCAASGFTFNTYAMNWVRQAPGKGLEWVARIRSKYNSYATYYADSVKDRFTISRDDSQSILYLQMNNLKTEDTAMYYCVRHEDYDGGFAYWGQGTLVTVSA VL: DIVMSQSPSSLAVSVGEKVTMSCKSSQSLFKSRTRKNYLAWYQQKPGQSPKLLIYWASTRESGVPDRFTGSGSGTDFTLTISSVQAEDLAVYYCKESYNLMYTFGGGTKLEIK" value_measured=8.44
binder="124H4D11 (antibody, V domains shown, Tested as chimeric antibody) VH: EVPLQQSGAELVRSGASVKLSCTASGFNIKDYYMHWVKQRPEQGLEWIGWIDPENGDTEYDPKFQGKATMTADTSSNTADLQLSSLTSEDTAVYYCNARYYAFDYWGQGTTLTVSS VL: DVLMTQTPLSLPVSLGDQASISCRSSQSIVHSNGNTYLEWYLQKPGQSPKLLIYKVSNRFSGVPDRFSGSGSGTEFTLKISRVEAEDLGVYYCFQGSQVPPTFGGGTRLEIK" value_measured=9.64

Let's switch to this binder now.
Answer with the recorded pEC50 for the binder listed here: 47G1B10 (antibody, V domains shown, Tested as chimeric antibody) VH: QVQLKQSGPGLVQPSQSLSITCTVSGFSLTTYGVHWVRQSPGKGLEWLGVIWTGGTTDYNAAFISRLSISKDNSKSQVFFKMNSLQANDTAIYYCARGPSSYWGQGTLVTVSA VL: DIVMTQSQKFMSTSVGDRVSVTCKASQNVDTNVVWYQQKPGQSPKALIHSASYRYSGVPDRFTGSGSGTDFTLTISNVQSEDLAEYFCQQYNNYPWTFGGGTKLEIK
9.43
